Cited source for all entries: ChEMBL document CHEMBL1124451

molecular target: Thromboxane-A synthase (Homo sapiens); assay: Relative potency of thromboxane A2 synthetase as reduced ADP-induced aggregation of human platelet rich plasma compared to dazoxiben; type: functional, cell-free
endpoint-name: Relative potency
// print number alone

Take a look at these entries with their results.
C/C(=C/c1cc(Cc2cccnc2)n(C(C)(C)C)c1)C(=O)O    43
Cn1c(/C=C/C(=O)O)ccc1Cn1ccnc1    0.75
C/C(=C/c1ccc(Cc2cccnc2)n1C(C)C)C(=O)O    0.9
C/C(=C/c1ccc(Cc2cccnc2)n1CC(C)(C)C)C(=O)O    0.24
C/C(=C/c1ccc(Cc2cccnc2)n1C)C(=O)O    46

Turning now to a further compound:
The reported Relative potency of the compound COC(=O)[C@@H]1CC1c1ccc(Cn2ccnc2)n1C (stereo partly specified) was 0.22
